Origin of measurements: ChEMBL document CHEMBL3988442

biological target: Tyrosyl-tRNA synthetase, putative (Trypanosoma cruzi (strain CL Brener)) (UniProt Q4DSP6); experiment: Trypanosoma cruzi tyrosyl tRNA synthetase (TcYRS) SOP; format: functional; set-up: scale not given: direction of the effect not stated beside the values; conditions: 30 µM
Sequence (Q4DSP6 as listed by the source): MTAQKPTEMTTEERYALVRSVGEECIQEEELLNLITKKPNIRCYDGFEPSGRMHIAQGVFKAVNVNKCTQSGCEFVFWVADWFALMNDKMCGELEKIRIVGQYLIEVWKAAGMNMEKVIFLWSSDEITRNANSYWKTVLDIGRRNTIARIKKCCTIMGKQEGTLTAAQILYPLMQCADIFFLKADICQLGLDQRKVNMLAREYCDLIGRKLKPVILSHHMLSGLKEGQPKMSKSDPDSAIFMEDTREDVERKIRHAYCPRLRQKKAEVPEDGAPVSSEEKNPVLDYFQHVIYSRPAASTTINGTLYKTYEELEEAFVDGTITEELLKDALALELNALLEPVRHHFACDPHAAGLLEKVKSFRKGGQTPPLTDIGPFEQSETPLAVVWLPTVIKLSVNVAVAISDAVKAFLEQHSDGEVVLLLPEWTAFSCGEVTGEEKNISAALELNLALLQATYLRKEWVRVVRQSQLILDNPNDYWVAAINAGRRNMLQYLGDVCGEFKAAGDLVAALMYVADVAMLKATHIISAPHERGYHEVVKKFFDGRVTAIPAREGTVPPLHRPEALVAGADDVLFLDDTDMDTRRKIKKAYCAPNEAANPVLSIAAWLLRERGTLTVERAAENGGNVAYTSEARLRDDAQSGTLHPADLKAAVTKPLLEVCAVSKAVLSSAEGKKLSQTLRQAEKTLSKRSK
1.0 means recorded Percent Effect is 10% or above; 0.0 means it is below 10%.

* Cn1ccnc1-c1ccccc1C(=O)N1CCc2c(nc(N)[nH]c2=O)C1 | 1.0
* CSC(C)(C)CNC(=O)NC1CCSCC1 | 1.0
* O=C(c1cccc2cccnc12)N1CCCN(c2cccnn2)CC1 | 1.0
* CCN1CCC(CNC(=O)NCc2cc(-c3ccc(C)cc3)no2)C1 (centres undefined) | 1.0
* CCOCCNc1nc(C2CCCC2)nc2c1cnn2C | 0.0
* Cc1nc(CN2C(=O)CC[C@H]3[C@@H]2CCN3C(=O)c2ccsc2)cs1 | 1.0
* CCn1cc(NC(=O)C2CCN(Cc3ccccc3C#N)CC2)cn1 | 1.0
* O=C(c1cnn2c1OCCC2)N1CCN(C/C=C/c2ccccc2)CC1 | 1.0
* CC(NC(N)=O)C(=O)N(C)CCCc1cc(-c2ccccc2)no1 (centres undefined) | 0.0
* CC(NC(=O)CCC(=O)c1cccs1)c1nnc2n1CCCCC2 (centres undefined) | 1.0
* CCC(C(=O)NCc1ccncc1)N(c1cccc(C)c1)S(C)(=O)=O (centres undefined) | 1.0
* CNc1cc(CNC(=O)c2ccccc2)nc(-c2ccncc2)n1 | 1.0
* O=C(Cc1cccs1)NC1CCN(c2cccc(F)c2)CC1 | 1.0
* O=C(c1ccc(F)cc1)N1CCN2C[C@H](OCc3ccccn3)C[C@H]2C1 | 1.0
* COc1ncccc1C(=O)N1CCC(c2nnc(C3CC3)o2)CC1 | 1.0
* Cc1ccc(NC(=O)NC(C)C(=O)N2CCS(=O)(=O)CC2)cc1 (centres undefined) | 1.0
* Cc1ccc(N2CCC3(CC2)CC(OCC(=O)N(C)C)CO3)nn1 (centres undefined) | 1.0
* O=C(NCCN1CCCc2ccccc21)c1scnc1Cl | 0.0
* Cn1cnnc1C1CCN(c2cncc(-n3cccn3)n2)CC1 | 0.0
* CC(=O)N1CC[C@H]2OCC[C@@H](C(=O)N3CCCCO3)[C@@H]2C1 | 1.0
* CCOC[C@H]1CC[C@H]2[C@H](CCN2C(=O)c2ccncc2F)O1 | 0.0
* Cc1cc(CN(C)C2CCCN(Cc3noc(C4CC4)n3)C2)no1 (centres undefined) | 0.0

====

molecular target: Chromo domain-containing protein 1 (Saccharomyces cerevisiae (strain ATCC 204508 / S288c) (Baker's yeast)) (UniProt P32657); test: ScCHD-1 Enzyme Inhibition Assay; format: functional; parameters: scale not given: in the data most compounds retested in dose-response had high values; details: 30 µM
Sequence (P32657 whole entry, the tested form may be a part): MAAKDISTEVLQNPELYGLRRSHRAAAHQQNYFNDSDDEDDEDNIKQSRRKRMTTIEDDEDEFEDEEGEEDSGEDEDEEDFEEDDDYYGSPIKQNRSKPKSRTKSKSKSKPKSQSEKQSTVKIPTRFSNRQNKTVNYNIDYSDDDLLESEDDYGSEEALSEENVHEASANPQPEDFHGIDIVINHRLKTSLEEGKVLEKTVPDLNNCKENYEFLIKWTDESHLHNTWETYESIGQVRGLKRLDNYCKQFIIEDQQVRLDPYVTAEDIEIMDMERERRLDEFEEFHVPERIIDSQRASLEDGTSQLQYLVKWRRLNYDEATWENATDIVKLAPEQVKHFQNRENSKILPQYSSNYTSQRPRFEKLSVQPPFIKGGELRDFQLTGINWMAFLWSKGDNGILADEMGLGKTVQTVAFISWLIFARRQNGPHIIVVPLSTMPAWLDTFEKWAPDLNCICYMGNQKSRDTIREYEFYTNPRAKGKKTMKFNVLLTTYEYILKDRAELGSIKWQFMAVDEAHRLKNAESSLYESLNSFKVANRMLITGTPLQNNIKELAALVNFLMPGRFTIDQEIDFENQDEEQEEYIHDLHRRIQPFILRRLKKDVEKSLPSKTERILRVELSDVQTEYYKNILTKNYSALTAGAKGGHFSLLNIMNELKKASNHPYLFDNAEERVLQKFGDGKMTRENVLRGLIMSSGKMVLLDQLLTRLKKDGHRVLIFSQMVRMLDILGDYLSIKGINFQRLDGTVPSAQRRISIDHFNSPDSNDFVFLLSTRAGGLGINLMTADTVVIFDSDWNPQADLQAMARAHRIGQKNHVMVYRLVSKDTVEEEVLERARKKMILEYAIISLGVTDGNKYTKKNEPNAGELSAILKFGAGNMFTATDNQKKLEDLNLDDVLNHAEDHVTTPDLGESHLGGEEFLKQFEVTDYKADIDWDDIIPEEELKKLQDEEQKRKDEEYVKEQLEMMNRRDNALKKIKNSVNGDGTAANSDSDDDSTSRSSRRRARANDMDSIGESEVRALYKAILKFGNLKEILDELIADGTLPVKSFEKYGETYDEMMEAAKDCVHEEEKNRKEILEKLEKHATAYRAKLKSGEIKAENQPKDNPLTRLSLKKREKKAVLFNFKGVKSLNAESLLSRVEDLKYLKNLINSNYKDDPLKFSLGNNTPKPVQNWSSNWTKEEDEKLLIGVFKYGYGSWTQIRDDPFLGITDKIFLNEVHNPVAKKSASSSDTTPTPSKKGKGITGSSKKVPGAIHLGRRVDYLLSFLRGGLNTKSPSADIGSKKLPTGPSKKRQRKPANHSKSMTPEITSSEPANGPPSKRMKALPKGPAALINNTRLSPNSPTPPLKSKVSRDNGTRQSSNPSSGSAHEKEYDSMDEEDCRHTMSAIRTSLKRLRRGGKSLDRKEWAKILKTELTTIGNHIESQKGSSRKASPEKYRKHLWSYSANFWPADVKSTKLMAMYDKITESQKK
property.measured: Percent Effect (%)

• CCN(CC)S(=O)(=O)N1CCCC(c2ccc(C(=O)O)cc2)C1 (stereo unspecified) = -0.737
• Cc1ccc(N2CCCC(NCC(=O)NCC3CC3)C2)nn1 (stereo unspecified) = -25.7
• CCCn1[nH]cc/c1=N\C(=O)CN1CCc2c(nc(C(C)C)n2C)C1 = -19.2
• O=C(c1ccc[nH]1)N1CCN(CC2CCOc3ccccc3C2)CC1 (stereo unspecified) = -1
• CCN(CC)Cc1ccc(C(=O)N2CCN(CC(C)O)CC2)cc1 (stereo unspecified) = 0.847
• O=C(NCCOc1ncc(Cl)cc1Cl)c1ccncc1 = -3.07
